These entries and their values trace back to patent US20090069384A1.

mPGES-1 (Homo sapiens, UniProt O14684) measurements of IC50, listed per entry.
Sequence (O14684 whole entry, species assumed): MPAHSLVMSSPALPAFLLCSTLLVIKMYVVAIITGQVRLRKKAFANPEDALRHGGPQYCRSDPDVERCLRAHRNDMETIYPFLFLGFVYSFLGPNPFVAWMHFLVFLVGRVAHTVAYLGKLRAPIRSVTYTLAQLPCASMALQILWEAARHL
test.readout: IC50 (nM)

1. CC(C)(C)c1ccc(-c2cc3c(s2)c(-c2ccc(C(C)(C)C)cc2)c(C(=O)O)n3Cc2cccc(Cl)c2)cc1 [Example 2]
390
2. CC(C)Oc1ccc(-c2cc3cc(C(=O)O)n(Cc4cccc(Cl)c4)c3s2)cc1 [Example 35]
4700
3. Cc1ccc(-c2cc3c(s2)c(I)c(C(=O)O)n3Cc2cccc(Cl)c2)s1 [Example 4]
1300
